- System: HepG2 cells
- experiment.summary: MTT cytotoxicity assay, hepatocellular carcinoma HepG2
- Format: cell-based
- assay.setup: Homo sapiens, HepG2; MTT, 48 h; read-out: HepG2 (IC50, μg ml^−1)
# reported IC50; entries follow
Mention the unit after the number when you answer.

compound	measured.attribute	assay.value
O=C(c1c[nH]c2ccccc12)[C@@H]1C(c2cccc(Br)c2)[C@@H]2CCCN2[C@@]12C(=O)Nc1ccccc12 (stereo partly shown)	IC50	4.2 µg/mL
COc1cc(C2[C@@H](C(=O)c3c[nH]c4ccccc34)[C@]3(C(=O)Nc4ccccc43)N3CCC[C@@H]23)cc(OC)c1OC (stereo partly shown)	IC50	15.7 µg/mL
COc1ccc(C2[C@@H](C(=O)c3c[nH]c4ccccc34)[C@]3(C(=O)Nc4ccccc43)N3CCC[C@@H]23)cc1 (stereo partly shown)	IC50	8.3 µg/mL
O=C(c1c[nH]c2ccccc12)[C@@H]1C(c2ccc(Br)cc2)[C@@H]2CCCN2[C@@]12C(=O)Nc1ccccc12 (stereo partly shown)	IC50	6.3 µg/mL
O=C(c1c[nH]c2ccccc12)[C@@H]1C(c2ccc(Cl)cc2Cl)[C@@H]2CCCN2[C@@]12C(=O)Nc1ccccc12 (stereo partly shown)	IC50	1 µg/mL

O=C(c1c[nH]c2ccccc12)[C@@H]1C(c2ccc(F)cc2)[C@@H]2CCCN2[C@@]12C(=O)Nc1ccccc12 (stereo partly shown) yielded IC50 of 9.3 µg/mL

Query O=C(c1c[nH]c2ccccc12)[C@@H]1C(c2ccco2)[C@@H]2CCCN2[C@@]12C(=O)Nc1ccccc12 (stereo partly shown) yields IC50 of 17.5 µg/mL

----------
- System: PC-3 cells
- experiment.summary: MTT cytotoxicity assay, prostate cancer cell line PC-3
- Format: cell-based
- assay.setup: IC50 normal (VERO-B) / IC50 cancer (PC-3)
measured.attribute: SI (selectivity index)
Number, no unit, nothing else.

compound	SI (selectivity index)
O=C(c1c[nH]c2ccccc12)[C@@H]1C(c2cccc(F)c2)[C@@H]2CCCN2[C@@]12C(=O)Nc1ccccc12 (stereo partly shown) [4h]	1.6
O=C(c1c[nH]c2ccccc12)[C@@H]1C(c2ccc(Cl)cc2)[C@@H]2CCCN2[C@@]12C(=O)Nc1ccccc12 (stereo partly shown) [4c]	1.9
O=C(c1c[nH]c2ccccc12)[C@@H]1C(c2ccc(Br)cc2)[C@@H]2CCCN2[C@@]12C(=O)Nc1ccccc12 (stereo partly shown) [4f]	1.8

Next:
According to the records, this compound O=C(c1c[nH]c2ccccc12)[C@@H]1C(c2ccco2)[C@@H]2CCCN2[C@@]12C(=O)Nc1ccccc12 (stereo partly shown) [4m] displays SI (selectivity index) of 1.9

----------
// reported pIC50 for each item listed
- Tested on: HepG2 cells
- experiment.summary: MTT cytotoxicity assay, hepatocellular carcinoma HepG2
- Format: cell-based
- assay.setup: Homo sapiens, HepG2; MTT, 48 h, ± SD of 3 experiments; read-out: HepG2 (IC50)
Quick note: pIC50 values are minus log10 of concentrations in mol/L.

Sample answers from the record:
compound	pIC50
O=C(c1c[nH]c2ccccc12)[C@@H]1C(c2ccc(F)cc2)[C@@H]2CCCN2[C@@]12C(=O)Nc1ccccc12 (stereo partly drawn)	4.70
O=C(c1c[nH]c2ccccc12)[C@@H]1[C@@H](c2ccc(C(F)(F)F)cc2)[C@@H]2CCCN2[C@]12C(=O)Nc1ccccc12	5.00
O=C(c1c[nH]c2ccccc12)[C@@H]1C(c2cccc(Br)c2)[C@@H]2CCCN2[C@@]12C(=O)Nc1ccccc12 (stereo partly drawn)	5.10

Entry COc1cc(C2[C@@H](C(=O)c3c[nH]c4ccccc34)[C@]3(C(=O)Nc4ccccc43)N3CCC[C@@H]23)cc(OC)c1OC (stereo partly drawn) ; pIC50 = 4.55

Briefly, pIC50 measured for O=C(c1c[nH]c2ccccc12)[C@@H]1C(c2ccco2)[C@@H]2CCCN2[C@@]12C(=O)Nc1ccccc12 (stereo partly drawn) : 4.40

----------
- Tested on: HepG2 cells
- experiment.summary: MTT cytotoxicity assay, hepatocellular carcinoma HepG2
- Assay type: cell-based
- assay.setup: Homo sapiens, HepG2; MTT, 48 h, ± SD of 3 experiments; read-out: HepG2 (IC50)
IC50 values for the molecules below.
A number alone suffices; assume µM.

// worked examples, IC50 included
molecule	IC50 [µM]
Cc1cccc(C2[C@@H](C(=O)c3c[nH]c4ccccc34)[C@]3(C(=O)Nc4ccccc43)N3CCC[C@@H]23)c1 (stereo partly shown)	7
O=C(c1c[nH]c2ccccc12)[C@@H]1C(c2ccc(Cl)cc2Cl)[C@@H]2CCCN2[C@@]12C(=O)Nc1ccccc12 (stereo partly shown)	2

Sample O=C(c1c[nH]c2ccccc12)[C@@H]1C(c2ccc(Br)cc2)[C@@H]2CCCN2[C@@]12C(=O)Nc1ccccc12 (stereo partly shown) ; IC50 observed: 12

So for O=C(c1c[nH]c2ccccc12)[C@@H]1C(c2cccc(F)c2)[C@@H]2CCCN2[C@@]12C(=O)Nc1ccccc12 (stereo partly shown) , the logged IC50 turned out to be 14

Measured IC50, O=C(c1c[nH]c2ccccc12)[C@@H]1C(c2cccs2)[C@@H]2CCCN2[C@@]12C(=O)Nc1ccccc12 (stereo partly shown) : 50

Sure, the documented IC50 for O=C(c1c[nH]c2ccccc12)[C@@H]1C(c2ccc(Cl)cc2)[C@@H]2CCCN2[C@@]12C(=O)Nc1ccccc12 (stereo partly shown) is 8

# IC50 of Cc1ccc(C2[C@@H](C(=O)c3c[nH]c4ccccc34)[C@]3(C(=O)Nc4ccccc43)N3CCC[C@@H]23)cc1 (stereo partly shown) = 11.8
